tgt: T1, NHERF3_1, Q5T2W1
T1 sequence (Q5T2W1 4-100, limits assumed, looked up): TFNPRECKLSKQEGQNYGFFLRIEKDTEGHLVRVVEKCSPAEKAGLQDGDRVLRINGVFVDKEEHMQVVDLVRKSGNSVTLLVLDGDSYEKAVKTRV
test.method.notes: holdup assay
Parameters: key: below the threshold = too weak to quantify, mostly under pKd 3.1 to 4
study.conditions: plain residues with an end cap or a label only (N-terminal biotin on a linker: ado-ado)
measurement.name: pKd
Please respond with just the number, no unit label.

Fill in the blank: the reported pKd of RKPKPSSSCC [RAB9A, P51151] is ____.
3.61

Fill in the blank: the reported pKd of GNSVLKSTQF [SLC22A12, Q96S37] is ____.
6.17

Fill in the blank: the reported pKd of SKSNFGSEPL [KIF17, Q9P2E2] is ____.
3.94

Fill in the blank: the reported pKd of FNSYSLTGYV [CLDN2, P57739] is ____.
4.35

Fill in the blank: the reported pKd of MLSKQSESAI [FLVCR1, Q9Y5Y0] is ____.
3.81

Fill in the blank: the reported pKd of VRNLPESEEL [MYOZ3, Q8TDC0] is ____.
3.88

Fill in the blank: the reported pKd of LPHPHSTTRV [NLGN2, Q8NFZ4] is ____.
3.9

Fill in the blank: the reported pKd of RRISSLESEV [GRIN2C, Q14957] is ____.
3.82

Fill in the blank: the reported pKd of TASPAKETSF [SLC2A7, Q6PXP3] is ____.
4.95

Fill in the blank: the reported pKd of HSGYRLNDYV [CLDN14, O95500] is ____.
4.59
